Measured values drawn from paper PMC8364686 for this set.

methodSummary: Plasma pharmacokinetics of BI 187004 after single oral doses (LC–MS/MS)
setupConditions: male, human, plasma, po, 20 mg, BI 187004 plasma concentrations, 20 mg single oral, planned time 10 h, Max
valueType: concentration at 10 h (µM)

# compound, valueType, resultNumber
rows = [
    ("N#Cc1ccc2c(c1)[C@H]1CCCN(C(=O)c3ccc4[nH]cnc4c3)[C@H]1C2 [BI 187004]", "concentration at 10 h", 0.529),
]

---

methodSummary: Plasma pharmacokinetics of BI 187004 after single oral doses (LC–MS/MS)
setupConditions: male, human, plasma, po, 5 mg, Plasma concentration Mean, 5 mg single oral; 1 h

# smilesRepresentation, unitString, concentration at 1 h
records = [
    ("N#Cc1ccc2c(c1)[C@H]1CCCN(C(=O)c3ccc4[nH]cnc4c3)[C@H]1C2", "nM", 147),
]

---

methodSummary: Plasma pharmacokinetics of BI 187004 after single oral doses (LC–MS/MS)
setupConditions: male, human, plasma, po, 80 mg, BI 187004 plasma concentrations, 80 mg single oral, planned time 8 h, Max

# compound, concentration at 8 h [nM]
records = [
    ("N#Cc1ccc2c(c1)[C@H]1CCCN(C(=O)c3ccc4[nH]cnc4c3)[C@H]1C2 [BI 187004]", 2840),
]

---

methodSummary: Plasma pharmacokinetics of BI 187004 after single oral doses (LC–MS/MS)
setupConditions: male, human, plasma, po, 360 mg, BI 187004 plasma concentrations, Min, 360 mg single oral, planned time 10 h
valueType: concentration at 10 h (µM)

# compound, valueType, unitString, resultNumber
measured = [
    ("N#Cc1ccc2c(c1)[C@H]1CCCN(C(=O)c3ccc4[nH]cnc4c3)[C@H]1C2 [BI 187004]", "concentration at 10 h", "µM", 3.36),
]

---

methodSummary: Plasma pharmacokinetics of BI 187004 after single oral doses (LC–MS/MS)
setupConditions: male, human, plasma, po, 40 mg, BI 187004 plasma concentrations, 40 mg single oral, planned time 0.5 h, Max

# smilesRepresentation, concentration at 0.5 h / µM
rows = [
    ("N#Cc1ccc2c(c1)[C@H]1CCCN(C(=O)c3ccc4[nH]cnc4c3)[C@H]1C2", 2.53),
]

---

methodSummary: Plasma pharmacokinetics of BI 187004 after single oral doses (LC–MS/MS)
setupConditions: male, human, plasma, po, 20 mg, BI 187004 plasma concentrations, 20 mg single oral, planned time 8 h, Max
valueType: concentration at 8 h

# smilesRepresentation, valueType, result
data = [
    ("N#Cc1ccc2c(c1)[C@H]1CCCN(C(=O)c3ccc4[nH]cnc4c3)[C@H]1C2", "concentration at 8 h", "645 nM"),
]

---

methodSummary: Plasma pharmacokinetics of BI 187004 after single oral doses (LC–MS/MS)
setupConditions: male, human, in vivo, po, 240 mg

# smilesRepresentation, concentration at 96 h
records = [
    ("N#Cc1ccc2c(c1)[C@H]1CCCN(C(=O)c3ccc4[nH]cnc4c3)[C@H]1C2", "18.4 nM"),
]

---

methodSummary: Plasma pharmacokinetics of BI 187004 after single oral doses (LC–MS/MS)
setupConditions: male, human, plasma, po, 80 mg, BI 187004 plasma concentrations, 80 mg single oral, planned time 3 h, Median
valueType: concentration at 3 h (nM)

# molecule, valueType, unitString, resultNumber
records = [
    ("N#Cc1ccc2c(c1)[C@H]1CCCN(C(=O)c3ccc4[nH]cnc4c3)[C@H]1C2 [BI 187004]", "concentration at 3 h", "nM", 2470),
]

---

methodSummary: Plasma pharmacokinetics of BI 187004 after single oral doses (LC–MS/MS)
setupConditions: male, human, plasma, po, 5 mg, Plasma concentration Mean, 5 mg single oral; 0.5 h

# smilesRepresentation, concentration at 0.5 h / nM
records = [
    ("N#Cc1ccc2c(c1)[C@H]1CCCN(C(=O)c3ccc4[nH]cnc4c3)[C@H]1C2", 101),
]

---

methodSummary: Plasma pharmacokinetics of BI 187004 after single oral doses (LC–MS/MS)
setupConditions: male, human, plasma, po, 20 mg, BI 187004 plasma concentrations, 20 mg single oral, planned time 6 h, Mean
valueType: concentration at 6 h (nM)

# compound, valueType, resultNumber
rows = [
    ("N#Cc1ccc2c(c1)[C@H]1CCCN(C(=O)c3ccc4[nH]cnc4c3)[C@H]1C2 [BI 187004]", "concentration at 6 h", 566),
]

---

methodSummary: Plasma pharmacokinetics of BI 187004 after single oral doses (LC–MS/MS)
setupConditions: male, human, plasma, po, 10 mg, Plasma concentration Median, 10 mg single oral; 2 h
valueType: concentration at 2 h (nM)

# smilesRepresentation, valueType, unitString, resultNumber
measured = [
    ("N#Cc1ccc2c(c1)[C@H]1CCCN(C(=O)c3ccc4[nH]cnc4c3)[C@H]1C2", "concentration at 2 h", "nM", 396),
]

---

methodSummary: Plasma pharmacokinetics of BI 187004 after single oral doses (LC–MS/MS)
setupConditions: male, human, plasma, po, 360 mg, BI 187004 plasma concentrations, Mean, 360 mg single oral, planned time 24 h

# smilesRepresentation, concentration at 24 h (nM)
records = [
    ("N#Cc1ccc2c(c1)[C@H]1CCCN(C(=O)c3ccc4[nH]cnc4c3)[C@H]1C2", 2840),
]

---

methodSummary: Plasma pharmacokinetics of BI 187004 after single oral doses (LC–MS/MS)
setupConditions: male, human, plasma, po, 360 mg, BI 187004 plasma concentrations, Median, 360 mg single oral, planned time 1.5 h
valueType: concentration at 1.5 h (µM)

# smilesRepresentation, unitString, resultNumber
rows = [
    ("N#Cc1ccc2c(c1)[C@H]1CCCN(C(=O)c3ccc4[nH]cnc4c3)[C@H]1C2", "µM", 11.6),
]

---

methodSummary: Plasma pharmacokinetics of BI 187004 after single oral doses (LC–MS/MS)
setupConditions: male, human, plasma, po, 360 mg, BI 187004 plasma concentrations, Median, 360 mg single oral, planned time 4 h

# compound, concentration at 4 h (µM)
rows = [
    ("N#Cc1ccc2c(c1)[C@H]1CCCN(C(=O)c3ccc4[nH]cnc4c3)[C@H]1C2 [BI 187004]", 10.3),
]

---

methodSummary: Plasma pharmacokinetics of BI 187004 after single oral doses (LC–MS/MS)
setupConditions: male, human, plasma, po, 240 mg, BI 187004 plasma concentrations, Mean, 240 mg single oral, planned time 5 h
valueType: concentration at 5 h (µM)

# smilesRepresentation, valueType, resultNumber
measured = [
    ("N#Cc1ccc2c(c1)[C@H]1CCCN(C(=O)c3ccc4[nH]cnc4c3)[C@H]1C2", "concentration at 5 h", 4.78),
]

---

methodSummary: Plasma pharmacokinetics of BI 187004 after single oral doses (LC–MS/MS)
setupConditions: male, human, plasma, po, 360 mg, BI 187004 plasma concentrations, gMean, 360 mg single oral, planned time 8 h
valueType: concentration at 8 h (µM)

# molecule, resultNumber
records = [
    ("N#Cc1ccc2c(c1)[C@H]1CCCN(C(=O)c3ccc4[nH]cnc4c3)[C@H]1C2 [BI 187004]", 6.71),
]

---

methodSummary: Plasma pharmacokinetics of BI 187004 after single oral doses (LC–MS/MS)
setupConditions: male, human, plasma, po, 160 mg, BI 187004 plasma concentrations, 160 mg single oral, planned time 0.5 h, Max

# smilesRepresentation, concentration at 0.5 h [µM]
data = [
    ("N#Cc1ccc2c(c1)[C@H]1CCCN(C(=O)c3ccc4[nH]cnc4c3)[C@H]1C2", 8.78),
]

---

methodSummary: Plasma pharmacokinetics of BI 187004 after single oral doses (LC–MS/MS)
setupConditions: male, human, plasma, po, 360 mg, BI 187004 plasma concentrations, gMean, 360 mg single oral, planned time 2 h

# smilesRepresentation, concentration at 2 h [µM]
data = [
    ("N#Cc1ccc2c(c1)[C@H]1CCCN(C(=O)c3ccc4[nH]cnc4c3)[C@H]1C2", 10.6),
]

---

methodSummary: Plasma pharmacokinetics of BI 187004 after single oral doses (LC–MS/MS)
setupConditions: male, human, plasma, po, 5 mg, Plasma concentration gMean, 5 mg single oral; 24 h
valueType: concentration at 24 h (nM)

# smilesRepresentation, unitString, resultNumber
rows = [
    ("N#Cc1ccc2c(c1)[C@H]1CCCN(C(=O)c3ccc4[nH]cnc4c3)[C@H]1C2", "nM", 30),
]

---

methodSummary: Plasma pharmacokinetics of BI 187004 after single oral doses (LC–MS/MS)
setupConditions: male, human, plasma, po, 240 mg, BI 187004 plasma concentrations, gMean, 240 mg single oral, planned time 72 h
valueType: concentration at 72 h

# smilesRepresentation, result
rows = [
    ("N#Cc1ccc2c(c1)[C@H]1CCCN(C(=O)c3ccc4[nH]cnc4c3)[C@H]1C2", "118 nM"),
]
